Record form. Attribute: GI50. Fill in for each entry.
- Test system: A375 cells (malignant melanoma)
- Assay Notes: Inhibition of cancer cell proliferation, A375 (CellTiterGlo, 72 hours)
- Format: cell-based
- Run Parameters: Homo sapiens, A-375

May I ask what GI50 has been recorded for C=CC(=O)Nc1cc(C)ccc1Nc1nc(Nc2cc(C(N)=O)ccc2C)ncc1C(F)(F)F ? < 100 nM

Quick check: GI50 of C=CC(=O)Nc1cc(C)ccc1Nc1nc(Nc2cc(C(C)=O)ccc2C)ncc1C(F)(F)F ? 101 to 500 nM

Name the reported GI50 value associated with the compound CCC(=O)Nc1ccccc1Nc1nc(N[C@H]2CCCN(C(=O)CO)C2)ncc1C(F)(F)F < 100 nM

Look up GI50 for this compound: C=CC(=O)Nc1ccccc1Nc1nc(Nc2cc(OC)nc(OCCOC)c2)ncc1C(F)(F)F < 100 nM

I have this compound here, CCC(=O)Nc1ccccc1Nc1nc(N[C@H]2CCCN(C(=O)CO)C2)ncc1Cl , and I need its recorded GI50. > 1000 nM

Query: GI50; subject: C=CC(=O)Nc1cc(CN2CCN(C(=O)c3cnccn3)CC2)ccc1Nc1nc(Nc2cc(OC)ncc2C)ncc1C(F)(F)F < 100 nM

Form field: reported GI50 of CN(C)CCC(=O)Nc1ccccc1Nc1nc(N[C@H]2CCCN(C(=O)CO)C2)ncc1C(F)(F)F > 1000 nM

Tell me the measured GI50 of C=CC(=O)Nc1cc(C)ccc1Nc1nc(Nc2cc(OC)nc(N3CCOCC3)c2)ncc1C(F)(F)F , please. < 100 nM

For the compound shown here, C=CC(=O)Nc1ccccc1Nc1nc(Nc2cc(OC)nc(OC)c2)ncc1C(F)(F)F , give the reported GI50. < 100 nM

What value of GI50 has been recorded for this entry: C=CC(=O)Nc1cc(C)ccc1Nc1nc(N[C@H]2CCCN(C(=O)CC)C2)ncc1C(F)(F)F < 100 nM

Requested field: GI50. Item: C=CC(=O)Nc1ccccc1Nc1nc(N[C@H]2CCCN(C(C)=O)C2)ncc1Cl < 100 nM

Would you kindly share the measured GI50 for C=CC(=O)Nc1ccccc1Nc1nc(Nc2cc(N[C@H]3CC[C@@H](O)CC3)nc(OC)c2)ncc1C(F)(F)F ? < 100 nM

Which value of GI50 has been reported for C=CC(=O)Nc1ccccc1Nc1nc(Nc2cc(C(=O)NCCO)c(F)cc2C)ncc1C(F)(F)F in the records? < 100 nM

Can you share its GI50? I mean this compound: C=CC(=O)Nc1cc(OC)ccc1Nc1nc(N[C@H]2CCCN(C(=O)CO)C2)ncc1C(F)(F)F < 100 nM

Tell me the measured GI50 of C=CC(=O)Nc1ccccc1Nc1nc(Nc2cc(Cl)nc(OC)c2)ncc1Cl , please. < 100 nM

Origin of measurements: patent US9561228B2
